Source listed as patent US9624208B2.

# STUDY_SYSTEM: human Nav1.7 (Homo sapiens)
# Construct: expressed in transfected cells
# Sequence (Q15858 whole entry): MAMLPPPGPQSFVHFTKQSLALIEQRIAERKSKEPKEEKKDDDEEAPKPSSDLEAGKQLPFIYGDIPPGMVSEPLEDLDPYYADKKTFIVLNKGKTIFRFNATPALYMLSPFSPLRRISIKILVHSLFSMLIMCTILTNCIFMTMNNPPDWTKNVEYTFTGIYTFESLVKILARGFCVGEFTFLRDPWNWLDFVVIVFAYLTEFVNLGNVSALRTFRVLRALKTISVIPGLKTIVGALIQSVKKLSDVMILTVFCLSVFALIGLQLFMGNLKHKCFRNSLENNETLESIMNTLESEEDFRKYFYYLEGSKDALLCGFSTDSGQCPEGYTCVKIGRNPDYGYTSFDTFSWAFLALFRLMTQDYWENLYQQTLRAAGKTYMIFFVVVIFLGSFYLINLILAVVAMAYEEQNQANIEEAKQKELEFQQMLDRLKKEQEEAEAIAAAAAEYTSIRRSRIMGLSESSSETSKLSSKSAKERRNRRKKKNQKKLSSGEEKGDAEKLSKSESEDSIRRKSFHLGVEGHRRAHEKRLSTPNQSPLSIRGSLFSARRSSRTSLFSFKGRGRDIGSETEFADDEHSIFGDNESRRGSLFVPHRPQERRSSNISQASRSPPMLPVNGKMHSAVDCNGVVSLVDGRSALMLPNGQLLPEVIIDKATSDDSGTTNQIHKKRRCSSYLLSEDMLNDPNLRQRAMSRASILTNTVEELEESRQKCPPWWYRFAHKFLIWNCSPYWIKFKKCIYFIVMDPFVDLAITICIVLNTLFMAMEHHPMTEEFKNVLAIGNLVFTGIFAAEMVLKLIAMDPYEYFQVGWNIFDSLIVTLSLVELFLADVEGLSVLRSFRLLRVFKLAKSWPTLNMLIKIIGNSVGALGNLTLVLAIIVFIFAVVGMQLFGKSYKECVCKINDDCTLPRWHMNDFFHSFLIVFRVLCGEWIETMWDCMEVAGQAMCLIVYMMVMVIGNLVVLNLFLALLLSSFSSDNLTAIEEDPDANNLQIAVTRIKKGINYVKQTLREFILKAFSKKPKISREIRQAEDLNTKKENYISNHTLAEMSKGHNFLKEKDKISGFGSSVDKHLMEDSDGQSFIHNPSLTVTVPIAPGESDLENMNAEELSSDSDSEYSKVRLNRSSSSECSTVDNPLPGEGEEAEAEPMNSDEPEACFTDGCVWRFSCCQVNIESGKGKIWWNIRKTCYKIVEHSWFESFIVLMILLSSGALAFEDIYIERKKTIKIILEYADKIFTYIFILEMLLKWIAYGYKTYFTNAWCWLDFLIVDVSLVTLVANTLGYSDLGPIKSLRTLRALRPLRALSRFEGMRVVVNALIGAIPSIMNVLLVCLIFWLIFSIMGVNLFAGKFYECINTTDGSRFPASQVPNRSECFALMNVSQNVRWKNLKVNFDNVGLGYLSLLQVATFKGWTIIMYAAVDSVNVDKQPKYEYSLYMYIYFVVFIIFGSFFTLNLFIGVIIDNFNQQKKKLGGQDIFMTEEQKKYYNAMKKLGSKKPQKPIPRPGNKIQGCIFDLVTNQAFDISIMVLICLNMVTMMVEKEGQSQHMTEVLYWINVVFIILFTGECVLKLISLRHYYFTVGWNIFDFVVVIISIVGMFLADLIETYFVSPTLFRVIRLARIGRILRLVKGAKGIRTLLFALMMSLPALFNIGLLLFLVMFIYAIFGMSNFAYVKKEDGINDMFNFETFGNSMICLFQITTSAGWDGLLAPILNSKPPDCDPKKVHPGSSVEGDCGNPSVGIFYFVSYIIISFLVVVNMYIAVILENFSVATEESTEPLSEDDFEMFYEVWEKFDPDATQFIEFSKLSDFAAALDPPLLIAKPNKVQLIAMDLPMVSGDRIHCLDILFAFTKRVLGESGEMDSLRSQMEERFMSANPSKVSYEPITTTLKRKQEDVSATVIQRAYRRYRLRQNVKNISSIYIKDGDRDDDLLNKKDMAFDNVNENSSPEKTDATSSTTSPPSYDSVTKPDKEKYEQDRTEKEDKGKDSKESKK
# EXPERIMENT_NOTES: PatchXpress sodium current measurement, inactivated state block, Nav1.7
# Type: cell-based
# STATED_CONDITIONS: channels stably expressed in HEK 293 cells, double-pulse protocol, 22° C., read-out: potency for the Nav 1.7 sodium ion channel (1.7=)
We label by threshold. Values of IC50 strictly beneath 100 nM are Criterion met. Values of 100 nM and up are Criterion not met.

# count of solved cases: 5
- MOLECULE: "C[C@H](c1ccccc1C#CC(N)CO)n1c(=O)oc2cc(S(=O)(=O)Nc3cccc(F)n3)c(F)cc21 (stereo partly drawn)"
  LABEL_VALUE: "Criterion met"
- MOLECULE: "C[C@H](c1cccc(C#CCN(C)C)c1)n1c(=O)oc2cc(S(=O)(=O)Nc3cccc(F)n3)c(F)cc21"
  LABEL_VALUE: "Criterion not met"
- MOLECULE: "C[C@H](c1ccccc1C1CNC1)n1c(=O)oc2cc(S(=O)(=O)Nc3ccc(F)cn3)c(F)cc21"
  LABEL_VALUE: "Criterion not met"
- MOLECULE: "C[C@H](c1ccccc1CN(C)C)n1c(=O)oc2cc(S(=O)(=O)Nc3cccc(F)n3)c(F)cc21"
  LABEL_VALUE: "Criterion not met"
- MOLECULE: "Cc1cccc([C@@H](C)n2c(=O)oc3cc(S(=O)(=O)Nc4cccc(F)n4)c(F)cc32)c1C#C[C@@H]1CCCC[C@@H]1N"
  LABEL_VALUE: "Criterion met"

# input In plain terms, does C[C@H](c1cccc(C2CCCN2)c1)n1c(=O)oc2cc(S(=O)(=O)Nc3cccc(F)n3)c(F)cc21 (stereo partly drawn) come in under 100 nM for IC50?
# output Criterion not met

# input Also, C[C@H](c1ccccc1C#CCN(C)C)n1c(=O)oc2cc(S(=O)(=O)Nc3cccc(F)n3)c(F)cc21 please.
# output Criterion not met

# input Also, Cc1cccc([C@@H](C)n2c(=O)oc3cc(S(=O)(=O)Nc4cccc(F)n4)c(F)cc32)c1Br please.
# output Criterion not met

# input Also, Cc1cccc([C@@H](C)n2c(=O)oc3cc(S(=O)(=O)Nc4cccc(F)n4)c(F)cc32)c1C1CCCN1 (stereo partly drawn) please.
# output Criterion met

# input Also, C[C@H](c1ccccc1CN)n1c(=O)oc2cc(S(=O)(=O)Nc3cccc(F)n3)c(F)cc21 please.
# output Criterion met

# input Also, C[C@H](c1cccc(C#CC(C)(C)N)c1)n1c(=O)oc2cc(S(=O)(=O)Nc3cccc(F)n3)c(F)cc21 please.
# output Criterion not met
